- Tested on: Plasmodium berghei
- MEASUREMENT NOTES: Luciferase/luciferin-expressing antifolate-resistant parasites were used to infect a culture of HepG2 cells that were pre-incubated with compounds. Infected hepatocytes emit light due to the luciferase reaction. Assay results are presented as the percent inhibition of light emission compared to control. […]
- Type: functional
- TEST PARAMETERS: sporozoite, HEPG2TOX_HILL_SLOPE 5.82, HEPG2TOX_R_SQUARED 0.501, PBLUC_HILL_SLOPE 8.19, PBLUC_R_SQUARED 0.453, read-out: LUCIFERASE INFECTION ASSAY - IC50
MEASURED PROPERTY: IC50 (µM)
Numeric answer only, unit µM assumed.

Return reported IC50; argument: `CNc1nc2cnc(Nc3cccc(Oc4ccccc4)c3)cc2n1-c1ccccc1`
8.37
